Catalogue of GI50 values
system: TK-10; experiment: NCI tumour cell line growth inhibition, 48 h
The source made the active and inactive calls. Rule as the data show it: active = GI50 up to about 1.1 µM and inactive = higher.

See these solved cases before continuing.
CCC12CN(C(=O)OC)C3C(Br)C1CCC(=O)C32 (configuration not stated) ... > 100 µM (inactive)
CC(C)(C)c1cc(CCC(=O)Nc2ccc(Cl)cc2)nc(S)n1 ... > 100 µM (inactive)
CC(=O)OCC1OC(O[C@@H]2C[C@H]3C(C)(C)[C@H](OC(C)=O)CC[C@]3(C)[C@H]3CC[C@@]45C[C@H](O)C[C@H](C)[C@@H]4CC=C5[C@@]32C)C(O)C(O)C1O (some centres not stated) ... 8.93 µM (inactive)
COC(=O)c1cc(OC(C)=O)c2c(OC)ccc(OC)c2c1 ... > 100 µM (inactive)
CC(C)c1ccc2c(c1)CCC1C(C)(C)[C@@H](O)CC[C@]21C (some centres not stated) ... 54 µM (inactive)
NC(=O)N1N=C2c3ccccc3SC[C@H]2[C@@H]1c1ccccc1 ... 32.1 µM (inactive)
C=C1c2[nH]c3ccccc3c2CC(C(=O)O)N1C(O)c1ccc(S(=O)(=O)O)cc1 (configuration not stated) ... > 100 µM (inactive)
N#Cc1ccccc1NC(=O)/C(=N\NC(=O)c1ccncc1)C(c1cnc2ccc([N+](=O)[O-])cc2n1)[N+](=O)[O-] (configuration not stated) ... > 100 µM (inactive)
COCCNC(=O)C1C(=O)N(CCOC)C(=O)/C1=N/N (configuration not stated) ... > 100 µM (inactive)
Cc1cn(Cc2cccc(C3=NCCCN3)c2)c(=O)n(Cc2cccc(C3=NCCCN3)c2)c1=O ... > 100 µM (inactive)

Query: Give GI50 for the following compound: CCCN(CCCc1ccccc1)CCc1ccc2[nH]c(=S)[nH]c2c1
Reply: 71.1 µM (inactive)

Query: Give GI50 for the following compound: CCc1ccccc1NC(=O)C(=O)CC(=O)c1sc(Nc2ccccc2)nc1C
Reply: > 100 µM (inactive)

Query: Give GI50 for the following compound: COc1ccccc1/C=C/c1cnccn1
Reply: > 10 µM (inactive)

Query: Give GI50 for the following compound: O=C(COc1ccc(Cl)cc1Cl)N/N=C/C=C/c1ccc([N+](=O)[O-])o1
Reply: 7.67 µM (inactive)

Query: Give GI50 for the following compound: Cc1cccc2sc(NC(=O)NS(=O)(=O)n3cnc4ccccc43)nc12
Reply: 35.6 µM (inactive)

Query: Give GI50 for the following compound: Cc1ccccc1NC(=O)CC(=O)n1nc(-c2ccccc2)c(/N=N/c2ccc([N+](=O)[O-])cc2)c1-c1ccccc1
Reply: 37.1 µM (inactive)

Query: Give GI50 for the following compound: Cc1nc(N)c(N2CCN(C#N)CC2)c(O)n1
Reply: > 100 µM (inactive)

Query: Give GI50 for the following compound: CCCCCCc1nn2c(-c3ccncc3)nnc2s1
Reply: > 10 µM (inactive)

Query: Give GI50 for the following compound: COc1cccc(NC(=O)CC(=O)n2nc(-c3ccccc3)c(/N=N/c3ccc(Cl)cc3)c2-c2ccccc2)c1
Reply: 64.1 µM (inactive)

Query: Give GI50 for the following compound: C=CCCc1cc(OC)ccc1CN(C)C(C)(C)CO
Reply: > 100 µM (inactive)

###

tested on: DMS-114; assay: NCI tumour cell line growth inhibition, 48 h
Calls of active or inactive are those of the source. No stated cut-off is given here; in the data, active = GI50 up to about 1.1 µM and inactive = higher.
Catalogue of GI50 values

See these solved cases before continuing.
O=C(CCc1n[nH]c(=S)o1)Nc1ccccc1C(F)(F)F ... > 100 µM (inactive)
COc1cc(C(=O)Nc2cccc3ccccc23)c(Br)c(OC)c1OC ... 30.7 µM (inactive)
O=c1[nH]nc2ccccc2c1Cl ... 4.89 µM (inactive)
O=C1C[C@@H]2CCCC[C@@H]2C12SCCS2 ... 89.1 µM (inactive)

Please look at the following molecule next.
Query: Provide measured GI50 on DMS-114 for COC(=O)/C(=N\NC(N)=S)C(C(=O)OC)C(=O)C(=O)Nc1ccc(C)cc1 (stereo not given) please.
Reply: > 100 µM (inactive)
